Target: His-EBNA1 (DNA binding domain of EBNA1, amino acids 459-607) (Epstein-Barr virus, UniProt P03211)
Sequence (P03211 459-607): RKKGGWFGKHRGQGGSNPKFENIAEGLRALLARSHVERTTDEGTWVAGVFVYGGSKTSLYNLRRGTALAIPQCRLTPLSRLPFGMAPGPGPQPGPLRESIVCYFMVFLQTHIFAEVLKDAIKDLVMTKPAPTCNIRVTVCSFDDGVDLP
observed-property: IC50

Study these solved cases before continuing.
O=C(O)c1cccc(C#Cc2ccc(CN3CCNCC3)cc2)c1-c1ccc2cc[nH]c2c1 [Entry 167] | 10 to 100 µM
Nc1nc2c(s1)C[C@@H](NC(=O)c1ccc(C#Cc3cccc(C(=O)O)c3-c3ccc4cc[nH]c4c3)cc1)CC2 [Entry 200] | 1 to 10 µM
O=C(O)c1cccc(C#Cc2ccc(COc3cncnc3)cc2)c1-c1ccc2cc[nH]c2c1 [Entry 96] | 1 to 10 µM
O=C(O)c1cccc(C#Cc2ccc(OC3CCOCC3)cc2)c1-c1cnc2[nH]ccc2c1 [Entry 142] | 10 to 100 µM
COc1ccc(OCc2ccc(C#Cc3cccc(C(=O)O)c3-c3ccc4cc[nH]c4c3)cc2)cc1 [Entry 85] | 1 to 10 µM

For every item in the list below, what is its measured IC50?
1. O=C(O)c1cccc(C#Cc2ccc(CN3CCC(F)(F)CC3)cc2)c1-c1ccc2[nH]ccc2c1 [Entry 181]
2. Nc1cc(-c2ccc(C#Cc3cccc(C(=O)O)c3-c3ccc4cc[nH]c4c3)cc2)[nH]n1 [Entry 128]
3. O=C(O)c1cccc(C#Cc2ccc(OC3CCS(=O)(=O)CC3)cc2)c1-c1ccc2cc[nH]c2c1 [Entry 144]
4. CS(=O)(=O)N1CCc2cc(C#Cc3cccc(C(=O)O)c3-c3ccc4cc[nH]c4c3)ccc2C1 [Entry 76]
5. N#Cc1ccccc1OCc1ccc(C#Cc2cccc(C(=O)O)c2-c2ccc3cc[nH]c3c2)cc1 [Entry 94]

1: 1 to 10 µM; 2: 1 to 10 µM; 3: 10 to 100 µM; 4: 1 to 10 µM; 5: 1 to 10 µM

----------
Target: His-EBNA1 (DNA binding domain of EBNA1, amino acids 459-607) (Epstein-Barr virus)
pIC50: −log10 of the molar value.
observed-property: pIC50

Please state pIC50 for every compound in the list that follows.
1. Nc1nc(-c2ccc(C#Cc3cccc(C(=O)O)c3-c3ccc4cc[nH]c4c3)cc2)c(C(=O)O)s1 [Entry 129]
2. O=C(O)c1cccc(C#Cc2ccc(OC3CC[S+]([O-])CC3)cc2)c1-c1ccc2cc[nH]c2c1 (centres unmarked) [Entry 29]
3. CC(=O)N1Cc2ccc(C#Cc3cccc(C(=O)O)c3-c3ccc4cc[nH]c4c3)cc2C1 [Entry 56]
4. O=C(O)c1cccc(C#Cc2ccc(COc3ccccc3F)cc2)c1-c1ccc2cc[nH]c2c1 [Entry 89]
5. N#Cc1cccc(OCc2ccc(C#Cc3cccc(C(=O)O)c3-c3ccc4cc[nH]c4c3)cc2)c1 [Entry 81]
6. O=C(O)c1cccc(C#Cc2ccc(OCCC3CCOCC3)cc2)c1-c1ccc2cc[nH]c2c1 [Entry 143]

1. > 6.00
2. 4.00 to 5.00
3. 5.00 to 6.00
4. 5.00 to 6.00
5. 5.00 to 6.00
6. 5.00 to 6.00

Give pIC50 for each listed item.
1. O=C(O)c1cccc(C#Cc2ccc(CC3CCN(S(=O)(=O)C(F)(F)F)CC3)cc2)c1-c1ccc2cc[nH]c2c1 [Entry 53]
2. O=C(O)c1cccc(C#Cc2ccc(C(=O)N3CCOCC3)c(O)c2)c1-c1ccc2cc[nH]c2c1 [Entry 46]

5.00 to 6.00
4.00 to 5.00

----------
Biological target: His-EBNA1 (DNA binding domain of EBNA1, amino acids 459-607) (Epstein-Barr virus, UniProt P03211)
observed-property: IC50

O=C(O)c1cccc(C#Cc2ccccc2)c1-c1ccc2ncsc2c1 [Entry 110] | 10 to 100 µM

Batch: IC50 for all items listed.
1. O=C(O)c1cccc(C#Cc2ccc(-c3ccc(=O)[nH]n3)cc2)c1-c1ccc2cc[nH]c2c1 [Entry 44]
2. O=C(NCc1ccc(C#Cc2cccc(C(=O)O)c2-c2ccc3cc[nH]c3c2)cc1)c1ccccc1 [Entry 197]
3. O=C(O)c1cccc(C#Cc2ccccc2)c1-c1cc2[nH]ccc2cc1F [Entry 113]

1. 1 to 10 µM
2. 1 to 10 µM
3. 1 to 10 µM

----------
Task for the reader: assign each of the following compounds its reported IC50.
Molecular target: His-EBNA1 (DNA binding domain of EBNA1, amino acids 459-607) (Epstein-Barr virus, UniProt P03211)
Construct: made in house; host or cells: E. coli
Test: Inhibition of 5'-biotin-oPL4624 binding to His-EBNA1 using Alpha Screen technology

CC(C)OCc1ccc(C#Cc2cccc(C(=O)O)c2-c2ccc3cc[nH]c3c2)cc1 [Entry 28] | 1 to 10 µM

// each listed compound needs a value for IC50
1. O=C(O)c1cccc(C#Cc2ccc3c(ccn3CCCN3CCOCC3)c2)c1-c1ccc2cc[nH]c2c1 [Entry 14]
2. CS(=O)(=O)N1CCN(Cc2c[nH]c3cc(C#Cc4cccc(C(=O)O)c4-c4ccc5cc[nH]c5c4)ccc23)CC1 [Entry 31]
3. O=C(O)c1cccc(C#Cc2ccc3ccn(CCN4CCS(=O)(=O)CC4)c3c2)c1-c1ccc2cc[nH]c2c1 [Entry 23]
4. O=C(O)c1cccc(C#Cc2cnc3c(ccn3CC3CCOCC3)c2)c1-c1ccc2cc[nH]c2c1 [Entry 17]
5. CCCNC(=O)c1cc2ccc(C#Cc3cccc(C(=O)O)c3-c3ccc4cc[nH]c4c3)cc2[nH]1 [Entry 101]
6. O=C(Nc1ccc(N2CCS(=O)(=O)CC2)cc1)c1cccc(C#Cc2cccc(C(=O)O)c2-c2ccc3cc[nH]c3c2)c1 [Entry 138]
7. CC(C)S(=O)(=O)N1CCc2ccc(C#Cc3cccc(C(=O)O)c3-c3ccc4cc[nH]c4c3)cc2C1 [Entry 74]

["10 to 100 µM", "1 to 10 µM", "10 to 100 µM", "1 to 10 µM", "1 to 10 µM", "1 to 10 µM", "1 to 10 µM"]

----------
Give measured IC50 for each item. Keep answers brief.
Target: His-EBNA1 (DNA binding domain of EBNA1, amino acids 459-607) (Epstein-Barr virus, UniProt P03211)

Consider the reported IC50 for these compounds:
O=C(O)c1cccc(C#Cc2ccc(CN3CCCC(F)(F)C3)cc2)c1-c1ccc2cc[nH]c2c1 | 1 to 10 µM
O=C(O)c1cccc(C#Cc2ccc(C(=O)C3CCOCC3)cc2)c1-c1ccc2cc[nH]c2c1 | 1 to 10 µM

Give IC50 for all compounds that follow.
1. O=C(O)c1cccc(C#Cc2cnc3c(ccn3CCN3CCS(=O)(=O)CC3)c2)c1-c1ccc2cc[nH]c2c1
2. O=C(O)c1cccc(C#Cc2ccc(COc3cccc(Cl)c3)cc2)c1-c1ccc2cc[nH]c2c1

10 to 100 µM
1 to 10 µM

----------
For each record, write down the corresponding pIC50.
Target: His-EBNA1 (DNA binding domain of EBNA1, amino acids 459-607) (Epstein-Barr virus, UniProt P03211)
pIC50: −log10 of the molar value.

CS(=O)(=O)N1CC2(CCN(Cc3ccc(C#Cc4cccc(C(=O)O)c4-c4ccc5cc[nH]c5c4)cc3)CC2)C1 | 4.00 to 5.00
O=C(O)c1cccc(C#Cc2ccc3cc(CN4CCS(=O)(=O)CC4)[nH]c3c2)c1-c1ccc2cc[nH]c2c1 | 5.00 to 6.00
O=C(O)c1cccc(C#Cc2ccc(CNC3CCS(=O)(=O)CC3)cc2)c1-c1ccc2cc[nH]c2c1 | 4.00 to 5.00
NC(=O)c1ccc(OCc2ccc(C#Cc3cccc(C(=O)O)c3-c3ccc4cc[nH]c4c3)cc2)cc1 | 5.00 to 6.00
O=C(O)c1cccc(C#Cc2cnc3c(c2)CCCN3)c1-c1ccc2cc[nH]c2c1 | 5.00 to 6.00
O=C(O)c1cccc(C#Cc2ccc(CN3CCN(S(=O)(=O)c4ccccc4)CC3)cc2)c1-c1ccc2cc[nH]c2c1 | 5.00 to 6.00

Can you give me pIC50 for all of these, one by one?
1. O=C(O)c1cccc(C#Cc2ccc(OC3CCOCC3)cc2)c1-c1ccc2[nH]ccc2c1
2. CN(C)CCn1ccc2cc(C#Cc3cccc(C(=O)O)c3-c3ccc4cc[nH]c4c3)cnc21

1: 5.00 to 6.00; 2: 5.00 to 6.00

# batch: return pIC50 for each of the 4 compounds below
1. O=C(O)c1cccc(C#Cc2ccc(F)cc2)c1-c1cnc2[nH]ccc2c1
2. O=C(O)c1cccc(C#Cc2ccccc2)c1-c1cnc2[nH]ccc2c1
3. CN(C)Cc1ccc(C#Cc2cccc(C(=O)O)c2-c2ccc3cc[nH]c3c2)cc1
4. O=C(O)c1cccc(C#Cc2ccccc2)c1-c1cc2cc[nH]c2cc1F

4.00 to 5.00
> 6.00
4.00 to 5.00
4.00 to 5.00

----------
What IC50 was measured for each of the following?
Target: His-EBNA1 (DNA binding domain of EBNA1, amino acids 459-607) (Epstein-Barr virus, UniProt P03211)

Would you be so kind as to report IC50 for each listed record?
1. Nc1nc(-c2ccc(C#Cc3cccc(C(=O)O)c3-c3ccc4cc[nH]c4c3)cc2)cs1 [Entry 121]
2. O=C(O)c1cccc(C#Cc2cccc(-c3nn[nH]n3)c2)c1-c1ccc2cc[nH]c2c1 [Entry 42]

["1 to 10 µM", "< 1 µM"]

For every record below, what is its IC50?
1. CC(C)S(=O)(=O)N1CCN(Cc2ccc(C#Cc3cccc(C(=O)O)c3-c3ccc4cc[nH]c4c3)cc2)CC1 [Entry 191]
2. COc1cc(C#Cc2cccc(C(=O)O)c2-c2ccc3cc[nH]c3c2)ccc1CN1CCOCC1 [Entry 45]
3. O=C(O)c1cccc(C#Cc2ccc(C(=O)N3CCC(N4CCOCC4)CC3)c(O)c2)c1-c1ccc2cc[nH]c2c1 [Entry 50]
4. O=C(O)c1cccc(C#Cc2cccc(CN3CCc4ccccc4C3)c2)c1-c1ccc2cc[nH]c2c1 [Entry 102]
5. CS(=O)(=O)Nc1cccc(-c2cccc(C#Cc3cccc(C(=O)O)c3-c3ccc4cc[nH]c4c3)c2)c1 [Entry 99]
6. O=C(O)c1cccc(C#Cc2cccc(-c3cnco3)c2)c1-c1ccc2cc[nH]c2c1 [Entry 107]
7. CS(=O)(=O)N1CCN(Cc2ccc(C#Cc3cccc(C(=O)O)c3-c3ccc4[nH]ccc4c3)cc2)CC1 [Entry 179]

1 to 10 µM
10 to 100 µM
1 to 10 µM
1 to 10 µM
1 to 10 µM
1 to 10 µM
10 to 100 µM

Quick request: IC50 for each listed item, please.
1. O=C(O)c1cccc(C#Cc2cnc3c(ccn3CC3CCS(=O)(=O)CC3)c2)c1-c1ccc2cc[nH]c2c1 [Entry 21]
2. CS(=O)(=O)N1CCC(N2Cc3ccc(C#Cc4cccc(C(=O)O)c4-c4ccc5cc[nH]c5c4)cc3C2)C1 (stereo not drawn) [Entry 68]
3. O=C(O)c1cccc(C#Cc2cnc3c(ccn3CCN3CCOCC3)c2)c1-c1ccc2cc[nH]c2c1 [Entry 8]
4. O=C(O)c1cccc(C#Cc2ccc(COc3cccc(C(F)(F)F)c3)cc2)c1-c1ccc2cc[nH]c2c1 [Entry 84]
5. CS(=O)(=O)Nc1nc(-c2ccc(C#Cc3cccc(C(=O)O)c3-c3ccc4cc[nH]c4c3)cc2)cs1 [Entry 131]
6. Nc1nc2c(s1)C[C@H](NCc1ccc(C#Cc3cccc(C(=O)O)c3-c3ccc4cc[nH]c4c3)cc1)CC2 [Entry 175]
7. O=C(O)c1cccc(C#Cc2ccc(OC3CCS(=O)(=O)CC3)cc2)c1-c1ccc2cn[nH]c2c1 [Entry 185]
8. O=C(O)c1cccc(C#Cc2ccc(CN3CCN(C4CCCC4)CC3)cc2)c1-c1ccc2cc[nH]c2c1 [Entry 170]

1. 1 to 10 µM
2. 1 to 10 µM
3. 1 to 10 µM
4. 1 to 10 µM
5. < 1 µM
6. 1 to 10 µM
7. 10 to 100 µM
8. 10 to 100 µM

Hi there! I need IC50 for each item below, if you can.
1. O=C(O)c1cccc(C#Cc2ccc3c(ccn3CCN3CCS(=O)(=O)CC3)c2)c1-c1ccc2cc[nH]c2c1 [Entry 22]
2. O=C(O)c1cccc(C#Cc2ccc(CN3CCOCC3)cc2)c1-c1ccc2cc[nH]c2c1 [Entry 145]
3. COC1CCN(Cc2ccc(C#Cc3cccc(C(=O)O)c3-c3cnc4[nH]ccc4c3)cc2)CC1 [Entry 177]

1. 1 to 10 µM
2. 1 to 10 µM
3. 100 to 1000 µM

Using known records, supply IC50 for O=C(O)c1cccc(C#Cc2ccc(CN3CCN(c4nccs4)CC3)cc2)c1-c1ccc2cc[nH]c2c1 [Entry 173]
1 to 10 µM
